Target: GST-Bcl-xL (Homo sapiens)
Label YES when Ki is strictly below 10 nM; at or above that, label NO.

For this compound, is Ki lower than 10 nM? Cc1c(-c2ccc(N3CCc4cccc(C(=O)Nc5nc6ccccc6s5)c4C3)nc2C(=O)O)cnn1CC1(OCC2COCCO2)CCCCCC1 (centres unmarked)
YES

Okay, and O=C(Nc1nc2ccccc2s1)c1cccc2c1CN(c1ccc(-c3ccc4c(cnn4Cc4ccccc4)c3)c(C(=O)O)n1)CC2 ?
YES

Can you check O=C(Nc1nc2ccccc2s1)c1cccc2c1CN(c1ccc(-c3cccc4c3cnn4Cc3ccccc3)c(C(=O)O)n1)CC2 next?
YES

Now the same for Cc1c(-c2ccc(N3CCc4cccc(C(=O)Nc5nc6ccccc6s5)c4C3)nc2C(=O)O)cnn1Cc1ccccc1
YES

Item: O=C(Nc1nc2ccccc2s1)c1cccc2c1CN(c1ccc(-c3ccn(C(=O)c4ccccc4)c3)c(C(=O)O)n1)CC2
YES

Next up: COCCOC1(Cn2ncc(-c3ccc(N4CCc5cccc(C(=O)Nc6nc7ccccc7s6)c5C4)nc3C(=O)O)c2C)CCCCCC1
YES

Next compound: CN(C)CCCNc1ccc(Cn2cc(-c3ccc(N4CCc5cccc(C(=O)Nc6nc7ccccc7s6)c5C4)nc3C(=O)O)cn2)cc1[N+](=O)[O-]
NO

Next compound up: CN(C)CCOc1cccc(Cn2cc(-c3ccc(N4CCc5cccc(C(=O)Nc6nc7ccccc7s6)c5C4)nc3C(=O)O)cn2)c1
NO

Field entry: O=C(Nc1nc2ccccc2s1)c1cccc2c1CN(c1ccc(-c3cccc(Oc4ccc(Cl)cc4)c3)c(C(=O)O)n1)CC2
YES

O=C(Nc1nc2ccccc2s1)c1cccc2c1CN(c1ccc(-c3ccc4c(c3)CCN(Cc3ccccn3)C4)c(C(=O)O)n1)CC2 , same question.
YES

How about this compound: Cc1c(-c2ccc(N3CCc4cccc(C(=O)Nc5nc6ccccc6s5)c4C3)nc2C(=O)O)cnn1CC1(OCC(O)CO)CCCCCC1 (centres unmarked)
YES

Same for COCC1(Cn2ncc(-c3ccc(N4CCc5cccc(C(=O)Nc6nc7ccccc7s6)c5C4)nc3C(=O)O)c2C)CCCCC1
YES

Also Cc1c(-c2ccc(N3CCc4cccc(C(=O)Nc5nc6ccccc6s5)c4C3)nc2C(=O)O)cc(C#N)n1CC1CCCCC1 , if possible.
YES

One more compound: Cc1c(-c2ccc(N3CCc4cccc(C(=O)Nc5nc6ccccc6s5)c4C3)nc2C(=O)O)cc(C#N)n1CC1(N2CCOCC2)CCCCC1
YES

Lookup Cc1c(-c2ccc(N3CCc4cccc(C(=O)Nc5nc6ccccc6s5)c4C3)nc2C(=O)O)c(C(=O)O)nn1Cc1ccccc1
NO

Another compound to check: COCC(COC1(Cn2ncc(-c3ccc(N4CCc5cccc(C(=O)Nc6nc7ccccc7s6)c5C4)nc3C(=O)O)c2C)CCCCCC1)OC (centres unmarked)
YES

Also need COCCCC(c1ccccc1)n1cc(-c2ccc(N3CCc4cccc(C(=O)Nc5nc6ccccc6s5)c4C3)nc2C(=O)O)cn1 (centres unmarked) , thanks.
YES

Now this one: O=C(Nc1nc2ccccc2s1)c1cccc2c1CN(c1ccc(-c3cnn(Cc4cccc(O)c4)c3)c(C(=O)O)n1)CC2
NO

Moving on to COC1(Cn2ncc(-c3ccc(N4CCc5cccc(C(=O)Nc6nc7ccccc7s6)c5C4)nc3C(=O)O)c2C)CCCCC1
YES

Same for O=C(Nc1nc2ccccc2s1)c1cccc2c1CN(c1ccc(-c3cccc(Oc4ccc([N+](=O)[O-])cc4)c3)c(C(=O)O)n1)CC2
NO

And Cc1c(-c2ccc(N3CCc4cccc(C(=O)Nc5nc6ccccc6s5)c4C3)nc2C(=O)O)ccnc1N(C)c1ccccc1 ?
YES

Same read-out for Cc1cccc(Cn2cc(-c3ccc(N4CCc5cccc(C(=O)Nc6nc7ccccc7s6)c5C4)nc3C(=O)O)cn2)c1 ?
NO

Please answer likewise for Cc1nn(Cc2ccccc2)c(C)c1-c1ccc(N2CCc3cccc(C(=O)Nc4nc5ccccc5s4)c3C2)nc1C(=O)O
YES

Same again, this time with Cc1c(NC2CCCCC2)cccc1-c1ccc(N2CCc3cccc(C(=O)Nc4nc5ccccc5s4)c3C2)nc1C(=O)O
YES

// next record O=C(Nc1nc2ccccc2s1)c1cccc2c1CN(c1ccc(-c3cnn(Cc4cccc(F)c4F)c3)c(C(=O)O)n1)CC2
NO

And the next one, Cc1c(-c2ccc(N3CCc4cccc(C(=O)Nc5nc6ccccc6s5)c4C3)nc2C(=O)O)cnn1Cc1ccccc1OCCCN1CCOCC1 ?
YES

---

Target: GST-Bcl-xL (Homo sapiens, UniProt Q07817)
Sequence (Q07817 whole entry): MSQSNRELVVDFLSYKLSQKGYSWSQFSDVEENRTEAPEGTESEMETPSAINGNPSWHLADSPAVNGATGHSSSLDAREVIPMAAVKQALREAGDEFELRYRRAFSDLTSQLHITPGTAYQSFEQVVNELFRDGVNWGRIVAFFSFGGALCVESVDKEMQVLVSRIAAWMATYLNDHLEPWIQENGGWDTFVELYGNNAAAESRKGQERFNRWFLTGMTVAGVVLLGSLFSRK
Could you mark each record T if its Ki falls strictly under 20 nM, and F if it equals or exceeds it?

Could you please tell me whether Ki recorded for O=C(Nc1nc2ccccc2s1)c1cccc2c1CN(c1ccc(-c3cnn(Cc4cccc(N5CCCC5)n4)c3)c(C(=O)O)n1)CC2 is less than 20 nM?
T

Now consider CC(C)(C)c1cc(Cn2cc(-c3ccc(N4CCc5cccc(C(=O)Nc6nc7ccccc7s6)c5C4)nc3C(=O)O)cn2)cc(C(C)(C)C)c1 and answer again.
T

Entry to check: Cc1c(-c2ccc(N3CCc4cccc(C(=O)Nc5nc6ccccc6s5)c4C3)nc2C(=O)O)cnn1Cc1ccccc1OCCN(C)C
T

What about N#Cc1cccc(Cn2cc(-c3ccc(N4CCc5cccc(C(=O)Nc6nc7ccccc7s6)c5C4)nc3C(=O)O)cn2)c1 ?
F

Try this molecule too: O=C(Nc1nc2ccccc2s1)c1cccc2c1CN(c1ccc(-c3cnn(CCc4ccccc4)c3)c(C(=O)O)n1)CC2
F

Same question, Cc1c(-c2ccc(N3CCc4cccc(C(=O)Nc5nc6ccccc6s5)c4C3)nc2C(=O)O)cnn1CC1(C)CCCC(C)(C)O1 (stereo not drawn) this time
T

---

Values of Ki reported for GST-Bcl-xL (Homo sapiens, UniProt Q07817) appear below.

Sample CN(C)c1cccc(Cn2cc(-c3ccc(N4CCc5cccc(C(=O)Nc6nc7ccccc7s6)c5C4)nc3C(=O)O)cn2)c1 — what was its Ki?
23 nM

Follow-up item: Cc1c(-c2ccc(N3CCc4cccc(C(=O)Nc5nc6ccccc6s5)c4C3)nc2C(=O)O)cccc1N(C)C(=O)C1CCCCC1
< 0.1 nM

Next record, please: O=C(Nc1nc2ccccc2s1)c1cccc2c1CN(c1ccc(-c3cnn(CCc4ccc(F)cc4)c3)c(C(=O)O)n1)CC2
98 nM

What about this molecule? Cc1c(-c2ccc(N3CCc4cccc(C(=O)Nc5nc6ccccc6s5)c4C3)nc2C(=O)O)ccnc1Oc1ccccc1
0.5 nM

And then Cc1noc(-c2cccc(Cn3cc(-c4ccc(N5CCc6cccc(C(=O)Nc7nc8ccccc8s7)c6C5)nc4C(=O)O)cn3)c2)n1 , what is it?
18 nM

Repeat with O=C(Nc1nc2ccccc2s1)c1cccc2c1CN(c1ccc(-c3cnn(Cc4ccccc4O)c3)c(C(=O)O)n1)CC2
8 nM

What would you report for Cc1ccc(Oc2ccccc2)cc1-c1ccc(N2CCc3cccc(C(=O)Nc4nc5ccccc5s4)c3C2)nc1C(=O)O ?
49 nM

Field entry: COCCC1(Cn2cc(-c3ccc(N4CCc5cccc(C(=O)Nc6nc7ccccc7s6)c5C4)nc3C(=O)O)cn2)CCCCC1
3 nM

Same thing, different molecule: O=C(Nc1nc2ccccc2s1)c1cccc2c1CN(c1ccc(-c3cnn(Cc4ccccc4OCc4ccncc4)c3)c(C(=O)O)n1)CC2
7 nM

Same for Cc1c(OC2CCCC(C)(C)C2)cccc1-c1ccc(N2CCc3cccc(C(=O)Nc4nc5ccccc5s4)c3C2)nc1C(=O)O (stereo not shown)
0.1 nM

Lookup O=C(Nc1nc2ccccc2s1)c1cccc2c1CN(c1ccc(-c3cnn(Cc4ccccn4)c3)c(C(=O)O)n1)CC2
167 nM

Thanks! And CC1(C)CCC(Cn2cc(-c3ccc(N4CCc5cccc(C(=O)Nc6nc7ccccc7s6)c5C4)nc3C(=O)O)cn2)=C(c2ccc(Cl)cc2)C1 ?
0.5 nM

Follow-up item: O=C(Nc1nc2ccccc2s1)c1cccc2c1CN(c1ccc(-c3cnn(CCC4CCCCC4)c3)c(C(=O)O)n1)CC2
5 nM

---

Target: GST-Bcl-2 (Homo sapiens)
Sequence (P10415 whole entry): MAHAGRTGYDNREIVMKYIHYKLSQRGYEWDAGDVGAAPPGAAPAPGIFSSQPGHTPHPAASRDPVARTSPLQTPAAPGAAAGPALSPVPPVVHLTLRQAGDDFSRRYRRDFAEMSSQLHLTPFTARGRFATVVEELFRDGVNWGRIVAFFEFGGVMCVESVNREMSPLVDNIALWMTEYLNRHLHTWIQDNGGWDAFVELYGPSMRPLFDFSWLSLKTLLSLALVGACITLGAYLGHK
Settings: F-Bak probe, read-out: Ki, competition with F-Bak for the Bcl-2 binding site using the TR-FRET binding assay
Metric: pKi
Quick note: pKi values are minus log10 of concentrations in mol/L.

Could you share which pKi value was measured for Cc1c(-c2ccc(N3CCc4cccc(C(=O)Nc5nc6ccccc6s5)c4C3)nc2C(=O)O)cnn1Cc1ccccc1 [Example 20] ?
7.15

---

Record type: Ki measurement. Applies to: GST-Bcl-xL (Homo sapiens, UniProt Q07817)
Report the figure in nM without appending any unit label.

What does the record list as Ki for O=C(Nc1nc2ccccc2s1)c1cccc2c1CN(c1ccc(-c3cnn(C4CCc5ccccc54)c3)c(C(=O)O)n1)CC2 (stereo not drawn) ?
17

Further, for Cc1c(-c2ccc(N3CCc4cccc(C(=O)Nc5nc6ccccc6s5)c4C3)nc2C(=O)O)cnn1Cc1ccccc1OCC1COCCO1 (stereo not drawn) ?
3

Next: N#Cc1nn(Cc2ccccc2)cc1-c1ccc(N2CCc3cccc(C(=O)Nc4nc5ccccc5s4)c3C2)nc1C(=O)O
315

Origin of the recorded values: patent EP2768830B1
